# Tested on: normal NK cells expanded with K562-aAPC
# protocol.text: percent inhibition of viability; higher = more inhibition
# conditions: 72 h; IL-2 2.5 ng/mL; 1 nM
For each entry below, report its percent inhibition of viability value.
Give the value in % but do not write % after it.

Challenge: Can you look up percent inhibition of viability on normal NK cells expanded with K562-aAPC for CNC(=O)c1cccc(-c2ccc3c(N4CCOC[C@@H]4C)nc(N4CCOC[C@@H]4C)nc3n2)c1 [AZD2014] (max concentration tested 10000 nM) ?
Response given: 1.08

Challenge: Can you look up percent inhibition of viability on normal NK cells expanded with K562-aAPC for Cc1cc(C)c(/C=C2\C(=O)Nc3ccccc32)[nH]1 [Semaxanib] (max concentration tested 10000 nM) ?
Response given: -3.94

Challenge: Can you look up percent inhibition of viability on normal NK cells expanded with K562-aAPC for O=C(Nc1ccc(-c2ccnc(Nc3ccc(N4CCOCC4)cc3)n2)cc1)C1CCCN1 (stereo unspecified) [XL019] (max concentration tested 10000 nM) ?
Response given: -3.5

Challenge: Can you look up percent inhibition of viability on normal NK cells expanded with K562-aAPC for COC1=CC(c2cc3ccccc3[nH]2)=N/C1=C\c1[nH]c(C)cc1C [Obatoclax] (max concentration tested 10000 nM) ?
Response given: 0.42

Challenge: Can you look up percent inhibition of viability on normal NK cells expanded with K562-aAPC for Cc1cc(C)c(CNC(=O)c2cc(-c3ccc(CN4CCOCC4)cc3)cc3c2cnn3C2CCCC2)c(=O)[nH]1 [EPZ-5687] (max concentration tested 10000 nM) ?
Response given: -0.71

Challenge: Can you look up percent inhibition of viability on normal NK cells expanded with K562-aAPC for CCn1cc(-c2ccnc3[nH]c(-c4cccc(CN(C)C)c4)cc23)c(-c2ccc(NC(=O)N(C)C)cc2)n1 (max concentration tested 1000 nM) ?
Response given: -6.24
